Value source: patent US20230272055A1

Biological target: T1, Recombinant MBP-mutCALR Type 1 fusion protein (human)
T1 construct: custom made at Cepter; also called recombinant mutCALR protein
Test: SPR, IgG captured, 1:1 fit, Exp. 2
Description: Experiment 2: Recombinant MBP-mutCALR Type 1 fusion protein was custom made at Cepter (cepterbiopartners.com). Data for the interaction of antibodies with recombinant mutCALR protein were collected at 25° C. on a Biacore 8K instrument (Cytiva, Marlborough, Mass.), and all reagents were obtained from Cytiva unless otherwise specified. The experiments were conducted using Tris-buffered saline (pH 7.2), 0.005% Surfactant P20, 1 mM CaCl₂) as running buffer. […]
metric.name: Kd (nM)
Write the value in nM as a bare number.

binder	metric.name	recorded.measurement
anti-mutCALR antibody clone 135 (antibody, human IgG1, lambda, N297A, V domains shown, human IgG1 N297A variant of clone 15) VH: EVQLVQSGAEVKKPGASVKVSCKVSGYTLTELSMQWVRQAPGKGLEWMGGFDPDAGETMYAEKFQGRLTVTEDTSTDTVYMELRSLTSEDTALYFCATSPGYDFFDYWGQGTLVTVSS VL: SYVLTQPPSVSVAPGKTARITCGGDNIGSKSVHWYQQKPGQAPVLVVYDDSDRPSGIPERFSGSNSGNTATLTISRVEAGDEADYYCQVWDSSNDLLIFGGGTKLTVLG	Kd	5.17

In plain terms, anti-mutCALR antibody clone 72 (antibody, human IgG1, lambda, N297A, V domains shown, human IgG1 N297A variant of clone 6) VH: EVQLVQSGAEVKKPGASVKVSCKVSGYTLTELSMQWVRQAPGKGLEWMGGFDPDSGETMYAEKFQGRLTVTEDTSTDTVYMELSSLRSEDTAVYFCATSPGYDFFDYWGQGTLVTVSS VL: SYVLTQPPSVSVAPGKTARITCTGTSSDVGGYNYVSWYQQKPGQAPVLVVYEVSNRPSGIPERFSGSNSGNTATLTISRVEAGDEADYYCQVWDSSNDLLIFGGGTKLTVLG has a documented Kd of 3.74

In plain terms, anti-mutCALR antibody clone 178 (antibody, human IgG1, lambda, N297A, V domains shown, human IgG1 N297A variant of clone 17) VH: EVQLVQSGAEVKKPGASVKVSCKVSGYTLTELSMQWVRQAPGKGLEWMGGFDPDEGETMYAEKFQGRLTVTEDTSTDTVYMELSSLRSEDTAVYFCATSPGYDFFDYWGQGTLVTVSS VL: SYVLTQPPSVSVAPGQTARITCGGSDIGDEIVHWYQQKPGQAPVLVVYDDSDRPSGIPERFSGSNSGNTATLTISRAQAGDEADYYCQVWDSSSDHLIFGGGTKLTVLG has a documented Kd of 1.21

In plain terms, anti-mutCALR antibody clone 58 (antibody, human IgG1, lambda, N297A, V domains shown, human IgG1 N297A variant of clone 6) VH: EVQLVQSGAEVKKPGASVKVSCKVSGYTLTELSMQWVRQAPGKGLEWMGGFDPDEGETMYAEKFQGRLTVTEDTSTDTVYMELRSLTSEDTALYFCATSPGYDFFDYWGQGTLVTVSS VL: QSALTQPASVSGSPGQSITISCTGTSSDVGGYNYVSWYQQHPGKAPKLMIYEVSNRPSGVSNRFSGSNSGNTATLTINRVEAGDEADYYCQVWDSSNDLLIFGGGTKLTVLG has a documented Kd of 0.343

In plain terms, anti-mutCALR antibody clone 71 (antibody, human IgG1, lambda, N297A, V domains shown, human IgG1 N297A variant of clone 6) VH: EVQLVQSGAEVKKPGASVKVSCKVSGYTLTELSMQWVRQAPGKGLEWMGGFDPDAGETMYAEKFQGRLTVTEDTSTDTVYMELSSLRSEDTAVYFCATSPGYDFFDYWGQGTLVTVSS VL: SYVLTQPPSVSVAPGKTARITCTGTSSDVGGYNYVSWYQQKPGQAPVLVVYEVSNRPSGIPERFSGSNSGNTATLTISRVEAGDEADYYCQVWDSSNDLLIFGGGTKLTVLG has a documented Kd of 2.31

In plain terms, anti-mutCALR antibody clone 139 (antibody, human IgG1, lambda, N297A, V domains shown, human IgG1 N297A variant of clone 15) VH: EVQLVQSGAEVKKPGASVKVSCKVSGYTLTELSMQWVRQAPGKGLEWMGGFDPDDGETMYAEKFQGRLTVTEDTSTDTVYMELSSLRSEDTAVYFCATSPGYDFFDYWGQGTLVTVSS VL: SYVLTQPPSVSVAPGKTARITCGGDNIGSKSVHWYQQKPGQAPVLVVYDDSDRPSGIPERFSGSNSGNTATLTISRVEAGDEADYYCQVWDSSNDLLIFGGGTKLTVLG has a documented Kd of 0.966
